Below, each of the compounds is paired with its reported pEC50 value.
system: HCV 1b_Huh-Luc/Neo-ET cell line persistently expressing a bicistronic genotype 1b replicon in Huh 7 cells; experiment: HCV replicon assay (luciferase readout, 72 h); format: cell-based, HCV genotype 1b; details: Hepatitis C virus, Huh-7, 72 h, read-out: Inhibition of HCV genotype 1b
pEC50: −log10 of the molar value.

# cpd-smiles, measured-result
data = [
    ("O=C(N[C@@H](C(=O)N1CCC[C@H]1C(=O)Nc1ccc(C#Cc2ccc(-c3cnc([C@@H]4CCCN4C(=O)[C@H](NC(=O)C4CC4)c4ccccc4)[nH]3)cc2)cc1)c1ccccc1)C1CC1", "> 9.00"),
]

[in] Name the reported pEC50 value associated with the compound `CC(C)[C@@H](NC(=O)C1CC1)C(=O)N1CCC[C@H]1c1ncc(C#Cc2ccc(C#Cc3cnc([C@@H]4CCCN4C(=O)[C@H](NC(=O)C4CC4)C(C)C)[nH]3)cc2)[nH]1`
[out] < 6.00

[in] Name the reported pEC50 value associated with the compound `COC(=O)N[C@@H](C(=O)N1CCC[C@H]1c1ncc(-c2ccc(C#Cc3ccc(-c4cnc([C@@H]5CCCN5C(=O)[C@H](NC(=O)N5CC[C@H](OC)C5)c5ccccc5)[nH]4)cc3)cc2)[nH]1)c1ccccc1`
[out] > 9.00
